Below, each of the compounds is paired with its reported melting point value.

Solved cases below.
CCC(=O)Oc1ccc(C#N)cc1 :: 44 to 46 °C
O=S(=O)(Nc1cccc(/C=C/c2ccccc2)c1)C(F)(F)F :: 62 to 64 °C
Cc1cc(Cl)nc2nc(N3C(=O)c4ccccc4C3CC(=O)N3CCC4(CC3)OCCO4)ccc12 (stereo not given) :: 259 to 262 °C
CCC(O)(c1ccccc1)c1cc(C)ccc1C (stereo not given) :: 38 to 39 °C
Cc1cccc(C=CC=C2SC(=S)N(CC(=O)O)C2=O)c1 :: 220 to 226 °C

Request: Look up and state reported melting point for `O=C(Nc1ccc(OCc2ccccc2)cc1)C1CC1`
Result: 162 °C

Request: Look up and state reported melting point for `N#Cc1ccc2ccnc(N)c2c1`
Result: 183 to 186 °C

Request: Look up and state reported melting point for CC(O)=C(C(=O)OCc1ccc([N+](=O)[O-])cc1)N1C(=O)C(NC(=O)COc2ccccc2)C1SS(=O)(=O)c1ccc(C)cc1 (stereo not given)
Result: 159 to 160 °C

Request: Look up and state reported melting point for O=C1NC(=O)C(Cc2ccccc2)S1 (stereo not given)
Result: 83 to 86 °C

Request: Look up and state reported melting point for `Cc1c2ccccc2c(-c2ccc(O)cc2)c2c1sc1ccccc12`
Result: 184 to 185 °C
